Give self-splicing fitness (ln) for every item shown.
# EXPERIMENTAL DETAILS: self-splicing fitness, log relative to wild type (ln ratio); higher = more splicing; Tetrahymena group I intron in knt gene, E. coli kanamycin selection, DiMSum; sequences stand for … in CUCUCU…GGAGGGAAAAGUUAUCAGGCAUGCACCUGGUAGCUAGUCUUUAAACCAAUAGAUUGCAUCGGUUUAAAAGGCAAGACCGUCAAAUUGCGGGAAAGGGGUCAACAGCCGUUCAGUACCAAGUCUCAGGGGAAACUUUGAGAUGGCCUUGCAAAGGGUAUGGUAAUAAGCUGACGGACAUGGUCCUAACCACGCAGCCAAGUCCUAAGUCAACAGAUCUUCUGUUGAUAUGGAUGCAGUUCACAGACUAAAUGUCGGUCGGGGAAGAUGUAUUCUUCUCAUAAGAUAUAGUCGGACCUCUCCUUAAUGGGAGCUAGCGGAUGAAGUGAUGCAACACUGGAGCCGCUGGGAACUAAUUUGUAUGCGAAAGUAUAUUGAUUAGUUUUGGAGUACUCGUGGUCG;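 note: selection with 25 µg/mL kanamycin versus none on LB agar overnight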
# TEST SETTINGS: 30 °C

# lookup: self-splicing fitness (ln) of `AUCAAGCAAUAUUACGUGGU` -2.83

Next record, please: `GAUCAGCAAUAUUACGAAAG` -0.98

Input `GAUCAGCAAUAUUACGUCAC` -3.88

Next entry: `CGCCAGCAAUAUUACGAUUC` -4.81

Would you kindly repeat that for `UUGAAGCAAUAUUACGUCUG` ? 0.509

Please give the result for `UAAAAGCAAUAUUACGUCUU` too. -0.765

Let us now turn to `GACAAGCAAUAUUACGCCAA` -2.03

Next: `UGUCAGCAAUAUUACGAGCA` -0.272

====

# EXPERIMENTAL DETAILS: self-splicing fitness, log relative to wild type (ln ratio); higher = more splicing; Tetrahymena group I intron in knt gene, E. coli kanamycin selection, DiMSum; sequences stand for … in CUCUCU…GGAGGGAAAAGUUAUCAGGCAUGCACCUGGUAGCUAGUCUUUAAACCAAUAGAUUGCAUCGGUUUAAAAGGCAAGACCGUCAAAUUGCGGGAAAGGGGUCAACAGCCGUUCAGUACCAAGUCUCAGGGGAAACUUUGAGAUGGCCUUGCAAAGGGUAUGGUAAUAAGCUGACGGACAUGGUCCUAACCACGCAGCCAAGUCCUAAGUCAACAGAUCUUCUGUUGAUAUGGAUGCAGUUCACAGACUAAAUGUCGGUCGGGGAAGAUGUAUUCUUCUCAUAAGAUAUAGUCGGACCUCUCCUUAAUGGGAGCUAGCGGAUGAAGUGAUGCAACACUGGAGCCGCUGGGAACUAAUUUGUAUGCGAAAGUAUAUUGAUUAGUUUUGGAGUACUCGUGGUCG
# TEST SETTINGS: 37 °C
READOUT: self-splicing fitness (ln)

Any idea what self-splicing fitness (ln) was measured for `UUAUAGCAAUAUUACGCAAA` ? -1.51

Same question, `AGGGAGCAAUAUUACGAAUU` this time -0.525

`GGUUAGCAAUAUUACGUUAG` , same question. -1.69

Can you handle `GUUAAGCAAUAUUACGAACU` next? -0.527

Quick one: `GUCAAGCAAUAUUACGUAAC` -0.545

Follow-up item: `CCUCAGCAAUAUUACGAGGU` -2.62

Same question for `CUGGAGCAAUAUUACGAUGA` please. -1.87

Query `ACACAGCAAUAUUACGCAAC` next -1.88
